The measured values listed here are drawn from PubChem BioAssay (NCI).

Could you please report measured TGI for the items listed next?
- Tested on: MDA-MB-468 breast
- protocol_description: NCI tumour cell line growth inhibition, 48 h
One number for each entry, in µM.

molecule	TGI (µM)
COc1ccc(C(O)c2cc3c(N)c(C(=O)Nc4ccc(Br)cc4)sc3nc2C)cc1 (stereo not drawn)	9.09

Could you report TGI for every entry in the following list?
1. CC#CC#Cc1cccc(=O)o1
2. CC/C(=C(\c1ccc(Cl)cc1)c1ccc(OCCN2CCCCC2)cc1)c1ccc(O)cc1
3. COC(=O)c1ccc2[nH]c(O)c(C(=Nc3ccc(N(C)C(=O)CN4CCN(C)CC4)cc3)c3ccc(OC)cc3)c2c1
4. CC(C)OC(=O)Nc1ccc(-c2nc(-c3cccc(OCCN4CCOCC4)c3)c(-c3ccnc(Br)c3)[nH]2)cc1
5. Cc1ccc2cc3c(N)c4c(C)ccc(C)c4nc3nc2c1

Reply:
1: 5.32; 2: 3.32; 3: 3.35; 4: 5.3; 5: 3.73

Task item: Return reported TGI. Input molecule: `COc1ccc(/C=C/C(=O)c2ccc(NC(=O)CSc3nnc(-c4ccc(OC)c(OC)c4)n3-c3ccccc3)cc2)cc1`
Reply: 4.55
